measurement target: T1, MBP-fused PDZ domain of MAST2 (human, UniProt Q6P0Q8 1104-1192)
T1 sequence (looked up): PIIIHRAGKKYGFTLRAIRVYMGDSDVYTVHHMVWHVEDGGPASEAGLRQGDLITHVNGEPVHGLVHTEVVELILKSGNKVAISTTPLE
test protocol: fluorescence polarisation
pKd: −log10 of the molar value. Where no end group is shown, it is not given here.
measurement type: pKd

INSERT INTO measurements (binder, experimental_value) VALUES
  ('RSK1 683-735 peptide, unphosphorylated (peptide, UniProt Q15418 683-735, looked up) peptide: QSQLSHQDLQLVKGAMAATYSALNSSKPTPQLKPIESSILAQRRVRKLPSTTL', 4.72),
  ('RSK1 683-735 peptide, phosphorylated (peptide, UniProt Q15418 683-735, looked up, also: monophosphorylated, site not given here) peptide: QSQLSHQDLQLVKGAMAATYSALNSSKPTPQLKPIESSILAQRRVRKLPSTTL', 4.32);
